Recorded values, source ChEMBL document CHEMBL2216751.

# Assay remarks: Clearance in Han-Wistar rat
# Type: ADME, organism-based
# Condition parameters: in vivo
Measure: clearance (mL/min/kg)
Quick reminder: number only, in mL/min/kg, skip the unit.

The reported value for Cn1cc(-c2ccc3c(c2)N(C2=NC4CC(C)(C)NC(=O)C4S2)CCO3)cn1 (stereo unspecified) in terms of clearance is 7

###

# Target or test system: Phosphatidylinositol 4,5-bisphosphate 3-kinase catalytic subunit delta isoform (Homo sapiens, UniProt O00329)
# Sequence (O00329 whole entry): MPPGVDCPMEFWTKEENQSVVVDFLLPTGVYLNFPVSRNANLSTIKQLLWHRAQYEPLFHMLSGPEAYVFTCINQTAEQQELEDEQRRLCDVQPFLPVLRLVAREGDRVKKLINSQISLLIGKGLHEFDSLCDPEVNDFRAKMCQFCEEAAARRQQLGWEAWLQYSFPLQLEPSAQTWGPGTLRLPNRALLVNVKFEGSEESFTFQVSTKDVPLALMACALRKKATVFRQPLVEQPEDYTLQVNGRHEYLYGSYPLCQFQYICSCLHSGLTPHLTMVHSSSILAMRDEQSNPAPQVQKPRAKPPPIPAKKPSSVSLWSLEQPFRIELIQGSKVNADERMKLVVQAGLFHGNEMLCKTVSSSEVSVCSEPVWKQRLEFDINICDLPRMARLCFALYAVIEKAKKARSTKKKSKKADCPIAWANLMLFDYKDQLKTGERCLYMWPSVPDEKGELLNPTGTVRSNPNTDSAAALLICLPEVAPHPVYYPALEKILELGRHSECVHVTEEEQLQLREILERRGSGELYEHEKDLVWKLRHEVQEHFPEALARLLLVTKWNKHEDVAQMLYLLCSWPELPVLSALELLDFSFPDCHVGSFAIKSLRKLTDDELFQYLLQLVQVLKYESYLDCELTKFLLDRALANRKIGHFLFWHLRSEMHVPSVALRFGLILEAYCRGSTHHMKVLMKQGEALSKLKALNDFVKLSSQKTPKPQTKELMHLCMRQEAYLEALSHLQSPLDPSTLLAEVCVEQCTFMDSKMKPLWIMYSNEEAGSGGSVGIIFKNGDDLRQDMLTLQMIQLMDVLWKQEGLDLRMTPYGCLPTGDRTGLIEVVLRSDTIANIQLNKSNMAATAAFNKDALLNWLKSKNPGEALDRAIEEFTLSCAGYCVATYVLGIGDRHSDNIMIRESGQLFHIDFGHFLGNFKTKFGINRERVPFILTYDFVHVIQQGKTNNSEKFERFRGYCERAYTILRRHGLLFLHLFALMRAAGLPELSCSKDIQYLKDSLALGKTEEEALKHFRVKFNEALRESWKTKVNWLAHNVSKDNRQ
# Assay remarks: Inhibition of PI3Kdelta assessed as inhibition of H2O2-induced AKT phosphorylation by cell-based assay
Measure: IC50 (µM)
API: value field is a number in µM; no unit string.

`C#Cc1cccc2nc(Cn3nc(-c4cccc(O)c4)c4c(N)ncnc43)n(Cc3cccc(OC)c3)c(=O)c12` yielded IC50 of 0.57

###

# Assay remarks: Oral bioavailability in Han-Wistar rat
# Format: ADME, organism-based
# Condition parameters: in vivo
Measure: bioavailability (%)

(a) Cc1ccc(-c2ccc3c(c2)N(C2=NC4CC(C)(C)NC(=O)C4S2)CCO3)nn1 (configuration not stated)
(b) Cn1cc(-c2ccc3c(c2)N(C2=NC4CC(C)(C)NC(=O)C4S2)CCO3)cn1 (configuration not stated)
Param pair: a , b . Output: the one whose bioavailability is numerically greater. // output: label of the selected item
b
(b: 97%, a: 66%)

###

# Target or test system: Phosphatidylinositol 4,5-bisphosphate 3-kinase catalytic subunit delta isoform (Homo sapiens)
# Assay remarks: Inhibition of PI3Kdelta in human PBMC assessed as inhibition of anti-IgM-induced AKT phosphorylation by FACS analysis
Measure: IC50 (nM)
Record the value in nM, omitting the unit from your answer.

In plain terms, `COc1cc(Nc2nc3ccccc3nc2NS(=O)(=O)c2ccc(CN(C)C)cc2)cc(OC)c1` has a documented IC50 of 16

###

# Target or test system: Phosphatidylinositol 4,5-bisphosphate 3-kinase catalytic subunit delta isoform (Homo sapiens, UniProt O00329)
# Sequence (O00329 whole entry): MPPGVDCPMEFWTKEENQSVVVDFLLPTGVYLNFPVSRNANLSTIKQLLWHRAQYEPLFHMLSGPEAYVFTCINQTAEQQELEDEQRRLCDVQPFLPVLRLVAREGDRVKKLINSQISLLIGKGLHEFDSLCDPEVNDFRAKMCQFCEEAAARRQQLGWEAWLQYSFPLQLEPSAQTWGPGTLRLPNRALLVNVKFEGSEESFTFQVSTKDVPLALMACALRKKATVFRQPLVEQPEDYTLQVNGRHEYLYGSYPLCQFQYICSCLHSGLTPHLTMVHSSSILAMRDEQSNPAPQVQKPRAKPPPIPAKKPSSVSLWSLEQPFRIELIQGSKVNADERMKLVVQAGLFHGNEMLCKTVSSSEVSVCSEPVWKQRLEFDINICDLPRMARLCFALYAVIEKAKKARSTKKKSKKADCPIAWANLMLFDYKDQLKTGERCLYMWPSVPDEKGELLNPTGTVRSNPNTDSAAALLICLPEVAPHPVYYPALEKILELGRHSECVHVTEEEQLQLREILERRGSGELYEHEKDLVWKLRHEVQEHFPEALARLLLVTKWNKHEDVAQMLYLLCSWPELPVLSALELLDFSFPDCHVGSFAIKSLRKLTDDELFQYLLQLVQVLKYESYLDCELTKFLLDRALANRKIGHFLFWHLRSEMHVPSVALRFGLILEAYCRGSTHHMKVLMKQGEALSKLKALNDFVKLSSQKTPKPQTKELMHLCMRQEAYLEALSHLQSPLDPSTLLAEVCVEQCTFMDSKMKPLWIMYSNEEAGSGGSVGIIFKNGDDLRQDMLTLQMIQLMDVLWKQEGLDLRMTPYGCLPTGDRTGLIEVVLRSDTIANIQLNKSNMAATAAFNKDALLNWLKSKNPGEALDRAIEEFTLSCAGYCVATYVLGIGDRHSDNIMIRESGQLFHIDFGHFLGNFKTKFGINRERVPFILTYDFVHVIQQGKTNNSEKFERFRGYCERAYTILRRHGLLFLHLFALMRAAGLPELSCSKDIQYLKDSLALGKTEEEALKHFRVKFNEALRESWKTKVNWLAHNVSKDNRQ
# Assay remarks: Inhibition of PI3Kdelta in neutrophil assessed as inhibition of superoxide production by cell-based assay
Measure: pIC50
Schema: pIC50 number; meaning minus log10 of the concentration expressed in molar units.

pIC50 in this record for Cn1cc(-c2ccc3c(c2)N(C2=NC4CC(C)(C)NC(=O)C4S2)CCO3)cn1 (stereo unspecified) : 6.95

###

# Target or test system: Phosphatidylinositol 4,5-bisphosphate 3-kinase catalytic subunit delta isoform (Homo sapiens, UniProt O00329)
# Sequence (O00329 whole entry): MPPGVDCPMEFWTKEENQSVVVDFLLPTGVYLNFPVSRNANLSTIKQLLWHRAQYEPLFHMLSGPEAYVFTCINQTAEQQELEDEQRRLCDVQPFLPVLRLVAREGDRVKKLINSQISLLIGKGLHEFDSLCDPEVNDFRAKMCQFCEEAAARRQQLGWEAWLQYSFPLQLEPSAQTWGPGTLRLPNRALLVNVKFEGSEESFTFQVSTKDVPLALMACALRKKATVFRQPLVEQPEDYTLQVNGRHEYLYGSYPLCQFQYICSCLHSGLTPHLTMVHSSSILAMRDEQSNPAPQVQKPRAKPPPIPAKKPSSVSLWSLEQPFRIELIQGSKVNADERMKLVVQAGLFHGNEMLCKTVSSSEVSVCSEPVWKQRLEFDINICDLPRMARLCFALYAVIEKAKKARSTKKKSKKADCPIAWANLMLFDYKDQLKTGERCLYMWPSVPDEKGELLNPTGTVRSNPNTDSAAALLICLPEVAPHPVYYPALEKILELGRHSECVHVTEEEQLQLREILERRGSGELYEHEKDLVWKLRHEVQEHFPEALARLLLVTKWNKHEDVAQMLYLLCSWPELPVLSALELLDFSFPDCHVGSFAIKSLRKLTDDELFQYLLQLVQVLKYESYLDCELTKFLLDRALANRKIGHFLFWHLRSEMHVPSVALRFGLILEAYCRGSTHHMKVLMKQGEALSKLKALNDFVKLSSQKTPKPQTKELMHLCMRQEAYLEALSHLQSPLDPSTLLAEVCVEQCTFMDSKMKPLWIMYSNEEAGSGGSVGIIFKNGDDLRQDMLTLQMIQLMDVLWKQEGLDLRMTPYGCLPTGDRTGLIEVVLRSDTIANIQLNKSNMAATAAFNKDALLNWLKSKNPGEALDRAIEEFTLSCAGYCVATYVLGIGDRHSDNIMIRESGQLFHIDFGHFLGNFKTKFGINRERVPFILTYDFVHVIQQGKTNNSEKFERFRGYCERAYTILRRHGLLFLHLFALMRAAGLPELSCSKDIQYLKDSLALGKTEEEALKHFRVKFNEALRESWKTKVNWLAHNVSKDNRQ
# Assay remarks: Inhibition of PI3Kdelta in human whole blood assessed as inhibition of CD69 production in B lymphocyte by immunoassay
Measure: IC50 (nM)

(P) Cc1nc2ccccc2n1-c1nc(N2CCOCC2)c2oc(CN3CCN(C(C)(C)C(N)=O)CC3)cc2n1
(Q) CC(C)c1nc2ccccc2n1-c1nc(N2CCOCC2)c2nc(OC3CN(C4CCS(=O)(=O)CC4)C3)n(C)c2n1
// compare: P vs Q , metric IC50, want the smaller Selection: enter the item's label.
Q
